Values were extracted from PubChem BioAssay AID248.

Examples of compounds with documented T/C follow.
test system: L1210 leukemia ip in BDF1 mice, survival T/C; assay: NCI In Vivo Anticancer Drug Screen. Data for tumor model L1210 Leukemia (intraperitoneal) in B6D2F1 (BDF1) mice; conditions: endpoint: mean survival time; dose: 50.0 mg/kg/injection; schedule: Q04DX003 (ip); vehicle: saline with Tween-80; higher = longer survival
Inconclusive results and toxic doses are left out.

| compound | T/C |
| --- | --- |
| CC(Cc1ccccc1)NC(C#N)c1ccccc1 (centres undefined) | 100 % of control |
| COc1cccc2c(Cl)c(CCl)c(C)nc12 | 97 % of control |
| CCOC(=O)CCCN(c1sc(C)c(C)c1C(=O)OCC)S(=O)(=O)c1ccc(C)cc1 | 97 % of control |
| CCN(CC)CCOc1cc(C)ccc1C(C)C | 100 % of control |

---

Test system: L1210 leukemia ip in BDF1 mice, survival T/C
Assay: NCI In Vivo Anticancer Drug Screen. Data for tumor model L1210 Leukemia (intraperitoneal) in B6D2F1 (BDF1) mice
Settings: endpoint: mean survival time; dose: 100.0 mg/kg/injection; schedule: Q01DX001 (ip); vehicle: carboxymethylcellulose (CMC)
Experimental: The antitumor activity of compounds was measured in mice bearing transplantable tumors. Survival or tumor size were measured and the results are expressed as the measurement made in the treated group (T) divided by the measurement made in the vehicle treated control group (C). The tumor model used in this assay is L1210 Leukemia (intraperitoneal) in B6D2F1 (BDF1) mice
Inconclusive results and toxic doses are left out. No stated cut-off is given here; in the data, active means T/C of 150% or more; inactive means T/C below 125%.
Outcome codes: TRUE = active, FALSE = inactive

| molecule | category-label |
| --- | --- |
| Cc1ccc(O)c(C(=O)c2ccccc2)c1 | FALSE |
| Nc1cccc(-c2csc(N)n2)c1 | FALSE |
| CC1COCC(C)N1CC(=O)Nc1ccc(S(=O)(=O)c2ccc(NC(=O)CN3C(C)COCC3C)cc2)cc1 (configuration not stated) | FALSE |
| CN(C)C(=S)N(C)C | FALSE |
| CCCCCN(C)/N=N/c1nc[nH]c1C(N)=O | FALSE |
| Nc1nc(=S)c2ncn(C3OC(CO)C(O)C3O)c2[nH]1 (configuration not stated) | TRUE |
| O=C1NC2CCC1c1ccccc12 (configuration not stated) | FALSE |
| CC(=O)CCc1ccccc1 | FALSE |
| CN(C)N=Nc1ccc(CCCC(=O)NN)cc1 | FALSE |
| Cn1c(CN(CCCl)CCCl)nc2c1c(=O)[nH]c(=O)n2C | FALSE |
| CCCOc1ccc(C2=C(c3ccccc3)C(=O)C(c3ccccc3)=C2c2ccccc2)cc1 | FALSE |
| CC(=O)C=P(c1ccccc1)(c1ccccc1)c1ccccc1 | FALSE |
| CC(=O)c1cccc2c(C(C)=O)cccc12 | FALSE |
| NC(CSSCC(N)C(=O)O)C(=O)O (configuration not stated) | FALSE |
| Cc1cc(C)n2nc(N)nc2n1 | FALSE |
| CCc1ccc(NC2=C(OC)C(=O)C(Nc3ccc(CC)cc3)=C(OC)C2=O)cc1 | FALSE |
| c1ccc2c(c1)Cc1cc(CN3CCOCC3)ccc1-2 | FALSE |
| CCSCC1OC(n2cnc3c(N)ncnc32)CC1SCC (configuration not stated) | FALSE |
| c1ccc(P(OCCCCOP(c2ccccc2)c2ccccc2)c2ccccc2)cc1 | FALSE |
| O=C1CCc2cc(Cl)ccc2O1 | FALSE |
| O=c1[nH]c2cc([N+](=O)[O-])ccc2c2ccc(Cl)cc12 | FALSE |
| CC(=O)Nc1ccc(-n2cnc3c(Cl)ncnc32)cc1C | FALSE |

---

system: L1210 leukemia ip in BDF1 mice, survival T/C; test: NCI In Vivo Anticancer Drug Screen. Data for tumor model L1210 Leukemia (intraperitoneal) in B6D2F1 (BDF1) mice; conditions: endpoint: mean survival time; dose: 50.0 mg/kg/injection; schedule: Q04DX003 (ip); vehicle: Klucel (hydroxypropylcellulose) (HPC); higher = longer survival
Inconclusive results and toxic doses are left out.

| compound | T/C |
| --- | --- |
| CC(=O)c1ccc(N2C(=O)C=CC2=O)cc1 | 115 % of control |
| COCCNC1=C(F)C(=O)C(NCCOC)=C(F)C1=O | 95 % of control |
| CNC(=S)N/N=C(/C)CCc1c(C)nn(C(=S)NC)c1C | 100 % of control |
| CCCCCCCCCCCCCCCCCC[n+]1cccc(C(=O)N2CCOCC2)c1 | 93 % of control |
| Cc1ccc(NC(=O)c2ccc(C)c(NC(=O)C(F)(F)F)c2)c(C)c1 | 97 % of control |
| O=C1C(Br)=CC(=NBr)C=C1Br | 101 % of control |
| CCCCn1c(Cl)c(C(=O)O)c2ccccc21 | 94 % of control |
| Clc1ccc(Cl)c(CBr)c1Cl | 101 % of control |
| CN(C)/N=C/c1ccc(N(C)C)cc1 | 96 % of control |
| O=P(OCC(Br)CBr)(OCC(Br)CBr)OCC(Br)CBr (stereo not given) | 107 % of control |

---

Examples of compounds with documented T/C follow.
System: L1210 leukemia ip in BDF1 mice, survival T/C
Experiment: NCI In Vivo Anticancer Drug Screen. Data for tumor model L1210 Leukemia (intraperitoneal) in B6D2F1 (BDF1) mice
Settings: endpoint: mean survival time; dose: 200.0 mg/kg/injection; schedule: Q04DX002 (ip); vehicle: saline with Tween-80; higher = longer survival
Procedure: The antitumor activity of compounds was measured in mice bearing transplantable tumors. Survival or tumor size were measured and the results are expressed as the measurement made in the treated group (T) divided by the measurement made in the vehicle treated control group (C). The tumor model used in this assay is L1210 Leukemia (intraperitoneal) in B6D2F1 (BDF1) mice
Toxic doses and inconclusive results are not listed.

| compound | T/C |
| --- | --- |
| Cc1c[n+]([O-])ccc1N=NN(C)c1ccccc1C | 86 % of control |
| CC(=O)OCCC(CCCl)OC(C)=O (stereo unspecified) | 104 % of control |
| O=C1OC(c2cccc(Cl)c2)=N/C1=C\c1ccc2c(c1)OCO2 | 89 % of control |
| CCCCC(F)C(Br)C(=O)O (stereo unspecified) | 87 % of control |
| O=C(O)CC1(c2ccccc2)OC(=O)c2ccccc21 (stereo unspecified) | 99 % of control |
| COC(=O)c1ccccc1N(C)C(=O)c1cc(OC)c(OC)c(OC)c1 | 94 % of control |
| CC(=O)OCCc1ccc(Cl)cc1 | 96 % of control |
| N#C/C(=C\C1CC(Br)CCC1O)C1CCC([N+](=O)[O-])CC1 (stereo unspecified) | 86 % of control |
| COc1cc(C(=O)NC(=S)Nc2ccc3ccccc3c2)cc(OC)c1OC | 97 % of control |
| CCOC(=O)c1ccc(NC(=O)Nc2cc(OC)ccc2OC)cc1 | 100 % of control |
| CC1OC(C2COC(C)(C)O2)C2OCOC12 (stereo unspecified) | 100 % of control |

---

Examples of compounds with documented T/C follow.
tested on: L1210 leukemia ip in BDF1 mice, survival T/C; test: NCI In Vivo Anticancer Drug Screen. Data for tumor model L1210 Leukemia (intraperitoneal) in B6D2F1 (BDF1) mice; details: endpoint: mean survival time; dose: 100.0 mg/kg/injection; schedule: Q01DX009 (ip); vehicle: saline with Tween-80; higher = longer survival
Toxic doses and inconclusive results are not listed.
measure-name: T/C

| compound | measure-name | obs-value |
| --- | --- | --- |
| O=C(O)c1ccccc1C(=O)NC(Cc1cnc[nH]1)C(=O)O (configuration not stated) | T/C | 96 % of control |
| CCC1(c2ccccc2)C(=O)N(COCc2ccccc2)C(=O)N(COCc2ccccc2)C1=O | T/C | 98 % of control |
| CCOC(=O)CNC1=NCCO1 | T/C | 91 % of control |
| O=[N+]([O-])c1ccc(CN=NCc2ccc(Cl)cc2Cl)c(Cl)c1 | T/C | 100 % of control |
| CCCC(=O)OC1CC(C)CCC1C(C)C (configuration not stated) | T/C | 90 % of control |
| NC(=O)c1ncc(-c2ccc(Cl)cc2)[nH]c1=O | T/C | 91 % of control |
| C=CCc1ccc(OC(=O)Nc2cc(Cl)ccc2OC)c(OC)c1 | T/C | 90 % of control |

---

test system: L1210 leukemia ip in BDF1 mice, survival T/C; assay: NCI In Vivo Anticancer Drug Screen. Data for tumor model L1210 Leukemia (intraperitoneal) in B6D2F1 (BDF1) mice; conditions: endpoint: mean survival time; dose: 200.0 mg/kg/injection; schedule: Q01DX009 (ip); vehicle: saline; higher = longer survival
Toxic doses and inconclusive results are not listed.
measure-name: T/C

| molecule | obs-value |
| --- | --- |
| C1COC(C2OCCO2)C1 (stereo unspecified) | 90 % of control |
| COC1=CCC2C(=O)OC(=O)C2C1 (stereo unspecified) | 109 % of control |
| O=S(=O)(/C=C/c1ccc(-c2ccccc2)cc1)c1ccccc1 | 96 % of control |
| COC(=O)C1CC2C(Cl)=C(Cl)C1(Cl)C2(Cl)Cl (stereo unspecified) | 123 % of control |
| CCO/C=C/C(=O)NC(=O)NC1CC(O)C(CO)C1 (stereo unspecified) | 93 % of control |
| CCCCSCC(N)C(=O)OC (stereo unspecified) | 101 % of control |
| Cc1cc(=O)n(C)c[n+]1C | 113 % of control |
| C/C=[N+](/[O-])CC | 101 % of control |
| COc1ccc(COC(=O)Nc2cc(C(F)(F)F)ccc2Cl)cc1 | 107 % of control |
| CCCCCSC | 95 % of control |
| O=c1[nH]c2ccc(Cl)cc2c(=O)o1 | 98 % of control |
| O=[N+]([O-])c1ccc(OCCCBr)c(Cl)c1 | 108 % of control |
| O=C(c1ccccc1)c1ccco1 | 93 % of control |
| BrCC(Br)C(Br)CBr (stereo unspecified) | 97 % of control |
| COc1cc(C(N)=O)cc(OC)c1O | 103 % of control |
| CCCCCCCCCC(=O)NO | 98 % of control |
